Biological target: T1, mouse BR3-Fc (mouse)
T1 construct: (BR3 ECD fused to a murine Fc); also called mBR3-Fc; murine BR3-Fc
T1 chain: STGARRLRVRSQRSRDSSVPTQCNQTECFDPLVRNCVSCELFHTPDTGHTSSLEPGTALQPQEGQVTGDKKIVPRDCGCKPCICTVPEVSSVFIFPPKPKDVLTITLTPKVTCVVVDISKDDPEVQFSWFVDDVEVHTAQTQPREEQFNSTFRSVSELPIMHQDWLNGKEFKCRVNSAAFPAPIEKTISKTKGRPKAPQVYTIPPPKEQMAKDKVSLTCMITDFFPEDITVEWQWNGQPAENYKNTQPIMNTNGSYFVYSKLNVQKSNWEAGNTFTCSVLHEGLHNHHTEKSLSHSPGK
Assay: F(ab)'2 phage solution binding competition ELISA

binder	bound type	IC50, nM
75 (Fab, V domains shown, also called V75; clone 75) VH: EVQLVESGGGLVQPGGSLRLSCAASGFTINGSWIHWVRQAPGKGLEWVAWITPSNGSTDYADSVKGRFTISADTSKNTAYLQMNSLRAEDTAVYYCARLSRRPWLWGMDYWGQGTLVTVSS VL: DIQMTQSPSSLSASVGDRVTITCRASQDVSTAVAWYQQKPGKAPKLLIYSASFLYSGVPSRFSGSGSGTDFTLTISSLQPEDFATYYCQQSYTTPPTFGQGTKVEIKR	>	10000
24 (Fab, V domains shown, also called V24; clone 24) VH: EVQLVESGGGLVQPGGSLRLSCAASGFTISGSSIHWVRQAPGKGLEWVGTIYPYGGNTYYADSVKGRFTISADTSKNTAYLQMNSLRAEDTAVYYCARRAFVMSGMDYWGQGTLVTVSS VL: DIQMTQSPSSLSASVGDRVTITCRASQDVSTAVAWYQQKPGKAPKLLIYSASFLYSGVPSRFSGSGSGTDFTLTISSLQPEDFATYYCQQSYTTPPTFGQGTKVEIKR	=	133
89 (Fab, V domains shown, also called V89; clone 89) VH: EVQLVESGGGLVQPGGSLRLSCAASGFTITGYGIHWVRQAPGKGLEWVAGITPANGYTDYADSVKGRFTISADTSKNTAYLQMNSLRAEDTAVYYCAKSFPFHYNFDYWGQGTLVTVSS VL: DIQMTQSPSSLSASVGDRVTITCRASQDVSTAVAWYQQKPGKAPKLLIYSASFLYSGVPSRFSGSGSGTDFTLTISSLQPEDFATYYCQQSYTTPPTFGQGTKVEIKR	=	37
96 (Fab, V domains shown, also called V96; clone 96) VH: EVQLVESGGGLVQPGGSLRLSCAASGFTINSSAIHWVRQAPGKGLEWVGYITPASGYTDYADSVKGRFTISADTSKNTAYLQMNSLRAEDTAVYYCAKGFHWYRGFFDYWGQGTLVTVSS VL: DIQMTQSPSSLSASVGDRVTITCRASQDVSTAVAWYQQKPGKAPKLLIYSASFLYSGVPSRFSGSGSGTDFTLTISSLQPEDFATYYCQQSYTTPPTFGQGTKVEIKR	=	200

Data origin, for the record: patent US20100280227A1
